# ASSAY_TARGET: S1R (Rattus norvegicus, UniProt Q9R0C9)
# Sequence (Q9R0C9 whole entry): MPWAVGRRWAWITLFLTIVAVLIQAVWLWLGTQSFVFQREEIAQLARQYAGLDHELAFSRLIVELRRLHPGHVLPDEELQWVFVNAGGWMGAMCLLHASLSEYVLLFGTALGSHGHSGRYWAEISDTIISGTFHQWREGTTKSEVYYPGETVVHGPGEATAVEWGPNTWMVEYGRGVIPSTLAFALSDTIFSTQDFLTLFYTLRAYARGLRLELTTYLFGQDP
# EXPERIMENTAL_DETAILS: S1R radioligand binding assay, [3H](+)-pentazocine, liver homogenates
# Parameters: from tissue; host or cells: rat liver homogenate (male Sprague-Dawley); species or system male Sprague-Dawley rats
# STUDY_CONDITIONS: ratio of S2R Ki to S1R Ki
Assign labels as follows, please: true (1) for KiS2R/KiS1R (preference for S1R over S2R) below 2; false (0) for KiS2R/KiS1R (preference for S1R over S2R) equal to or exceeding 2.

Prompt: Could you please tell me whether KiS2R/KiS1R (preference for S1R over S2R) recorded for c1ccc(CCCN2CCCC3CN(Cc4ccccc4)CC32)cc1 (centres unmarked) [8f] is less than 2?
Completion: false (0)

Prompt: Same thing, different compound: c1ccc(CN2CCCC3CN(c4ccccc4)CC32)cc1 (centres unmarked) [8a]
Completion: true (1)

Prompt: Proceed to O=C(Cc1ccccc1)N1CCC2(CC1)CN(CCc1ccccc1)C2 [5b]
Completion: false (0)

Prompt: Entry c1ccc(CCCN2CC3(CCN(CCc4ccccc4)CC3)C2)cc1 [4f] please
Completion: true (1)

Prompt: Quick one: c1ccc(CCCN2CC3(CCN(c4ccccc4)CC3)C2)cc1 [4d]
Completion: true (1)

Prompt: // same read-out, input: c1ccc(CCN2CC3(CCN(c4ccccc4)CC3)C2)cc1 [4a]
Completion: false (0)

Prompt: Note, next up: O=C(c1ccccc1)N1CCC2(CC1)CN(CCc1ccccc1)C2 [5a]
Completion: false (0)

Prompt: For c1ccc(CCN2CCC3(CC2)CN(CCc2ccccc2)C3)cc1 [4c] then?
Completion: false (0)

Prompt: Next compound: c1ccc(CCCN2CCCC3CN(c4ccccc4)CC32)cc1 (centres unmarked) [8e]
Completion: true (1)

Prompt: Same again, this time with c1ccc(CCN2CC3CCCN(CCc4ccccc4)C3C2)cc1 (centres unmarked) [8d]
Completion: true (1)

* * *

# ASSAY_TARGET: S1R (Rattus norvegicus, UniProt Q9R0C9)
# EXPERIMENTAL_DETAILS: S1R radioligand binding assay, [3H](+)-pentazocine, liver homogenates
# Parameters: from tissue; host or cells: rat liver homogenate (male Sprague-Dawley); species or system male Sprague-Dawley rats
# STUDY_CONDITIONS: read-out: Ki (nM) ± SD S1R
Field 'label' (enum: yes / no). Set to yes when Ki is strictly under 10 nM; else no.

Prompt: Given c1ccc(CCCN2CC3(CCN(c4ccccc4)CC3)C2)cc1 [4d] , is recorded Ki strictly lower than 10 nM?
Completion: no

Prompt: Moving on to the next compound: c1ccc(CCCN2CC3(CCN(CCc4ccccc4)CC3)C2)cc1 [4f]
Completion: no

Prompt: c1ccc(CCN2CC3CCCN(CCc4ccccc4)C3C2)cc1 (centres unmarked) [8d] , same question.
Completion: no

Prompt: Here is the next compound: O=C(c1ccccc1)N1CCC2(CC1)CN(CCc1ccccc1)C2 [5a]
Completion: no

Prompt: Cool, now c1ccc(CCN2CCCC3CN(Cc4ccccc4)CC32)cc1 (centres unmarked) [8c]
Completion: no

Prompt: One more compound: O=C(Cc1ccccc1)N1CCC2(CC1)CN(CCc1ccccc1)C2 [5b]
Completion: no

Prompt: And the next one, c1ccc(CCCN2CC3(CCN(Cc4ccccc4)CC3)C2)cc1 [4e] ?
Completion: yes

Prompt: // same read-out, input: c1ccc(CCCN2CCCC3CN(CCc4ccccc4)CC32)cc1 (centres unmarked) [8g]
Completion: no

Prompt: c1ccc(CCCN2CCCC3CN(c4ccccc4)CC32)cc1 (centres unmarked) [8e] , same question.
Completion: no

Prompt: Let us now turn to c1ccc(CCN2CCC3(CC2)CN(CCc2ccccc2)C3)cc1 [4c]
Completion: yes

* * *

Task for the reader: assign each of the following compounds its reported log10(Ki).
# ASSAY_TARGET: S1R (Rattus norvegicus)
# EXPERIMENTAL_DETAILS: S1R functional assay: S1R radioligand binding with or without phenytoin
# Design: incubating 200 μL of membrane preparation with 50 μL of 20 nM; from tissue; host or cells: membrane preparation
# STUDY_CONDITIONS: without phenytoin; read-out: Ki (nM) control
# values: log10(Ki), units nM

Prompt: So what's the measured log10(Ki) for this one? CN1CCN(CCc2ccc(Cl)c(Cl)c2)CC1.Cl.Cl [BD-1063, reference compound]
Completion: 0.83

Prompt: Moving on to the next compound: O=C(Cc1ccccc1)N1CCC2(CC1)CN(CCc1ccccc1)C2 [5b]
Completion: 1.08

Prompt: Also C=CCN1CC[C@]2(C)c3cc(O)ccc3C[C@H]1[C@H]2C [SKF-10,047, reference compound] , if possible.
Completion: 2.00

Prompt: // next record c1ccc(CCCN2CCCC3CN(Cc4ccccc4)CC32)cc1 (centres unmarked) [8f]
Completion: 0.98

Prompt: Also c1ccc(CCN2CC3(CCN(Cc4ccccc4)CC3)C2)cc1 [4b] ?
Completion: 0.51

* * *

# ASSAY_TARGET: S2R (Rattus norvegicus)
# Construct: from tissue; host or cells: rat liver homogenate (male Sprague-Dawley)
# Sequence (Q5U3Y7 whole entry): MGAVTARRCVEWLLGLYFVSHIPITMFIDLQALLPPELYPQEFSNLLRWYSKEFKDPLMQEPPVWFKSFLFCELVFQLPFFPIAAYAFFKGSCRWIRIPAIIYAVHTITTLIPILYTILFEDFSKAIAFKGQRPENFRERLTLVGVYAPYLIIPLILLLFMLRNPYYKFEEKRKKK
# EXPERIMENTAL_DETAILS: S2R radioligand binding assay, [3H]DTG with (+)-pentazocine as S1R masking agent, liver homogenates
# Parameters: species or system male Sprague-Dawley rats
# STUDY_CONDITIONS: read-out: Ki (nM) ± SD S2R
Provide the reported Ki of each item.
# unit: nM | format: bare number

Prompt: Hi! What's the reported Ki for c1ccc(CCCN2CCCC3CN(c4ccccc4)CC32)cc1 (stereo not drawn) [8e] on S2R (Rattus norvegicus)?
Completion: 91

Prompt: Moving on to c1ccc(CCN2CCC3(CC2)CN(CCc2ccccc2)C3)cc1 [4c]
Completion: 22

Prompt: Further, for c1ccc(CN2CCCC3CN(c4ccccc4)CC32)cc1 (stereo not drawn) [8a] ?
Completion: 148

Prompt: Can you check c1ccc(CCCN2CC3(CCN(CCc4ccccc4)CC3)C2)cc1 [4f] next?
Completion: 149

Prompt: And then c1ccc(CCN2CC3CCCN(CCc4ccccc4)C3C2)cc1 (stereo not drawn) [8d] , what is it?
Completion: 114

Prompt: Try this compound too: c1ccc(CCCN2CCCC3CN(Cc4ccccc4)CC32)cc1 (stereo not drawn) [8f]
Completion: 165
